System: NCI/ADR-RES ovarian
Assay: NCI-60 one-dose screen, 48 h
Settings: 10 µM
About 83,000 compounds went through this panel and 20% of them were active in at least one assay; those are over-represented in the sample as a whole. Activity calls are given as the source filed them. Rule for the calls: active = growth percent below 10; inactive = the rest.
Would you mind answering with one of these outcomes? active, inactive

Consider the worked cases shown below.
Cc1cc(C)c(C(=O)OC(C)CNC2CCCCC2)c(C)c1 (stereo not given) | inactive
FC(F)(F)c1ccc(-c2cnc(Cl)nc2NC2CCCCCC2)cc1 | inactive
Cc1noc(C)c1-c1ccc2nc(NC(=O)[C@H]3CCN(C#N)C3)cn2c1 | inactive
COc1ccccc1CNCCCN1C(=O)c2ccc3c4c(ccc(c24)C1=O)C(=O)N(CCCNCCNCCCN)C3=O | inactive
CCOC(=O)c1c(Cl)c2c(n1Cc1cccc(OC)c1)-c1oncc1CC2 | active

Outcome logged for `Cc1ccc2c(c1)-c1cc(C)nn1-c1ccc(C#N)cc1O2` in this assay:
inactive

How was `COc1ccc(-c2nnc(COc3ccc(NC(=O)Nc4cccc(C(F)(F)F)c4)cc3F)o2)cc1` classified in this test?
inactive

Could you please tell me the result logged for `N#Cc1c(-c2ccccc2)nc(SCC(=O)N2CCOCC2)[nH]c1=O` in this assay?
inactive

Assay result, entry `O=C(O)CNS(=O)(=O)c1ccc(OCCOc2ccc(S(=O)(=O)NCC(=O)O)cc2)cc1` — outcome?
inactive

Please state the recorded outcome for this compound: `Cc1cccc2c(Nc3ccc(NS(C)(=O)=O)cc3)c3ccc([N+](=O)[O-])cc3nc12`
inactive

Entry `COc1ccc(N2CCN(c3nc(-c4ccccc4)c(C#N)c(=O)[nH]3)CC2)cc1` : call = ?
inactive

Recorded call for `COc1ccc(C(=O)n2nc(CC(=O)NCc3ccccc3)nc2N)cc1` ?
inactive

Record lookup: outcome of this test for `C/C(=N/NC(=O)c1sc(=S)n(C)c1N)c1cc2cc(Cl)ccc2o1` ?
inactive

Query: recorded result category for `COC(=O)[C@]12CC[C@@H](C)[C@H](C)[C@@H]1C1=CC[C@@H]3[C@@]4(C)C/C(=N\O)[C@H](O)[C@@]5(C)COC(=C45)C[C@@]3(C)[C@]1(C)CC2` in this test
active

Entry `COc1ccc(Cn2cc3c(c2-c2ccccc2)CC(C)(C)c2cnoc2-3)cc1` : call = ?
inactive

# fetch the recorded call for `Cc1cc(OI)c(C(C)C)cc1-c1cc(C(C)C)c(OI)cc1C` here
inactive

Hello, I am checking results. What call was entered for `NCCNc1ccc2cc(-c3nc4ccccc4[nH]3)c(=O)oc2c1` ?
inactive

Answer briefly: the call reported for `Nc1ccc(Sc2ccc3c4c2cccc4c(=O)n2c4ccccc4nc32)cc1` in this assay.
inactive

So what was the verdict on `O=C1/C(=C/c2ccc([N+](=O)[O-])s2)Oc2ccc(Cl)cc21` in this test?
active

How did this test come out for `CC(C)(C)CC(C)(C)c1ccc(O)c(Cc2ccc(Cl)cc2Cl)c1` ?
active

---

Tested on: MDA-MB-231 breast
Test: NCI-60 one-dose screen, 48 h
Conditions: 10 µM
The panel holds about 83,000 compounds, 20% with a hit somewhere; the sample as a whole holds those more often. Active and inactive are the calls of the source. The calls were made as follows: active = growth percent below 10; inactive = the rest.
Reply using exactly one outcome from active, inactive

COc1ccc(Cn2cc3c(c2-c2cc(OC)c(OC)c(OC)c2)CCc2cnoc2-3)cc1N | inactive

Kindly consider the entry below.
What was the test verdict on NC1CCC(Nc2nc(NCc3cc(Cl)ccc3O)c3ncn(C4CCCC4)c3n2)CC1 (configuration not stated) ?
active

---

System: SK-MEL-2 melanoma
Experiment: NCI-60 one-dose screen, 48 h
Conditions: 10 µM
The panel holds about 83,000 compounds, 20% with a hit somewhere; the sample as a whole holds those more often. Calls of active or inactive are those of the source. How the source made its calls: active means growth percent below 10; inactive means the rest.
Respond only with the outcome that fits, drawn from active, inactive

Before answering, review these 8 worked examples.
COc1cccc2c1C(=O)c1c(O)c3c(c(O)c1C2=O)C[C@@](O)(C(=O)COC(=O)c1ccccc1)C[C@@H]3OC1CC(N)C(O)C(C)O1 (stereo not given in full) | active
CCCCCN(CCCCC)C(C)C(O)c1ccc2cc(Cl)c3ccccc3c2c1 (stereo not given) | inactive
COc1cc(C2C=C(c3ccc(Cl)c(Cl)c3)N=C3SC(C)=CN32)cc(OC)c1OC (stereo not given) | inactive
COc1ccc2nc(C)cc(Nc3ccc(Cl)cc3)c2c1 | inactive
N#C/C(=C\N1C(=O)/C(=C/c2cccc([N+](=O)[O-])c2)SC1=S)c1nc2ccccc2s1 | inactive
Cc1cnc(C=O)c2cccc([N+](=O)[O-])c12 | inactive
CCn1nc(-c2ccccn2)c2cccnc2c1=S | inactive
COc1cccc(C(=O)N(c2ccc(F)c(F)c2)C(C(=O)NC(C)(C)C)c2cc3c(C)cc(C)cc3nc2Cl)c1 (stereo not given) | inactive

Per the assay record, what outcome was assigned to `CC(C)c1ncc(CO)n1Cc1c(Cl)cccc1Cl` ?
inactive

Could you please tell me the result logged for `COC(=O)c1c(C)nc(Nc2nc3ccccc3s2)nc1-c1ccc(Cl)cc1Cl` in this assay?
inactive

---

System: KM12 colon
Assay: NCI-60 one-dose screen, 48 h
Conditions: 10 µM
This is part of a sample that, as a whole, favours compounds with a hit. Of some 83,000 tested, about 20% had one in any assay. Activity calls are given as the source filed them. The calls were made as follows: active = growth percent below 10; inactive = the rest.
Use one of these outcomes when replying: Yes = active, No = inactive

C[n+]1c(/C=C/c2c[nH]c3ccccc23)ccc2ccccc21 | No
O=[N+]([O-])c1ccc(-c2nc(-c3ccccc3)c(-c3ccccc3)n2-c2ccccc2)cc1 | No
CCC(CCNc1cc(OC)cc2cccnc12)CN1C(=O)c2ccccc2C1=O (stereo not given) | No
COc1ccc(/C(=C/c2cc(OC)c(OC)cc2[N+](=O)[O-])C(=O)O)cc1 | No
NC(=O)c1ccc(Br)o1 | No

Returns: the outcome recorded for `COc1ccc(Cn2cc3c(c2-c2cc(OC)c(OC)c(OC)c2)CCc2cnoc2-3)cc1[N+](=O)[O-]` in this assay.
No

Which outcome was assigned to `COc1ccc(-c2ccccc2)cc1C(=O)c1ccc(-c2ccccc2)cc1` in this test?
No

Which outcome was entered for the compound `COc1cc(C)c2sc3ccccc3c(=O)c2c1NCCN(C)C` in this test?
No

Tell me the recorded outcome of this test for `S=c1c2ncccc2c(-c2ccccn2)nn1Cc1ccccn1` .
No

So what was the verdict on `COC(=O)[C@]12CC[C@@H](C)[C@H](C)[C@@H]1C1=CC[C@@H]3[C@@]4(C)C/C(=N\O)[C@H](O)[C@@]5(C)COC(=C45)C[C@@]3(C)[C@]1(C)CC2` in this test?
Yes

Dear colleague, could you share the recorded outcome for `COc1ccc2nc(-c3ccccc3)cc(C(C)=O)c2c1` when you have a moment?
No

Which outcome was assigned to Nc1nc2c(ncn2C2OC3COP(=O)(O)OC4C(COP(=O)(O)OC2C3O)OC(n2cnc3c(N)ncnc32)C4O)c(=O)[nH]1 (stereo not given) in this test?
No

// outcome(item) with item = `CCOc1nc(-c2ccccc2)cc2c(O)c(C(=O)N/N=C/c3ccc(OC)cc3)[nH]c(=O)c12`
No

Just curious, what result did `O=NN(CC(=O)N/N=C/C=C\c1ccccc1)CC(=O)N/N=C/C=C/c1ccccc1` get here?
No

Dear all, I need the recorded test outcome for Cc1cc(=O)oc2cc(OCc3cn(CC(O)CO)nn3)ccc12 (stereo not given) , thank you.
No

What call does the record list for `CC(=O)n1nc(C(=O)OC(C)(C)C)c2cc(F)c(F)cc21` ?
No

Per the assay record, what outcome was assigned to `COc1cc(-c2nc3ccccc3[nH]2)ccc1OCC(=O)N=Nc1c(O)[nH]c2ccccc12` ?
No

Per the records of this test, what outcome belongs to `CCOC(=O)c1sc(Nc2ncccn2)nc1-c1ccccn1` ?
No

Hey, what did the test say about CC(=O)Nc1ccc2c(c1)C(N1CC3CCC(CC3)C1)c1ccccc1-2 (stereo not given) ?
No

Hello, I am checking results. What call was entered for `COc1ccc(-c2nnc(COc3ccc(NC(=O)Nc4ccccc4)cc3F)o2)cc1` ?
No

Which outcome was assigned to `CCN(CCCNC(=O)Cc1cc(=O)oc2cc(N(C)C)ccc12)CCNc1ccnc2cc(Cl)ccc12` in this test?
No

Short answer needed: outcome of this test for `CCOc1ccc2c(c1)CC[C@@H]1[C@@H]2CC[C@]2(C)[C@@H](O)[C@@H](O)C[C@@H]12` ?
No

Please indicate how the test categorized `CNC(=O)c1cc(Oc2ccc(NC(=O)Nc3ccc(Cl)c(C(C)(C)C)c3)c(F)c2)ccn1` .
No

---

System: SNB-19 CNS
Test: NCI-60 one-dose screen, 48 h (100 = growth as untreated, 0 = no growth, -100 = all killed)
Settings: 10 µM
The panel holds about 83,000 compounds, 20% with a hit somewhere; the sample as a whole holds those more often. Activity calls are given as the source filed them. How the source made its calls: active means growth percent below 10; inactive means the rest.
Reported values of growth for individual entries

Example compounds with recorded growth:
Cc1ncc([N+](=O)[O-])n1CCOc1ccc(C(=O)/C=C/c2ccc(C(F)(F)F)cc2)cc1 | 69.7% (inactive)
CCOC(=O)c1cc2c(n1Cc1ccccc1)-c1oncc1CC2 | 86.2% (inactive)
COc1cccc(C(=O)NNc2nc(N3CCN(C4CCCCC4)CC3)nc(N3CCN(C(c4ccccc4)c4ccccc4)CC3)n2)c1 | 47.7% (inactive)
COc1cc(C2CC(=O)Nc3c2c(C)nn3-c2nc3ccccc3[nH]2)cc(OC)c1O (centres undefined) | 44.1% (inactive)

Form field: reported growth of CCCCCCCCCCSC(=N)N (tested in a mixture with another compound)
75.8% (inactive)
